# System: HL-60
# METHOD DESCRIPTION: NCI tumour cell line growth inhibition, 48 h
Calls of active or inactive are those of the source. No stated cut-off is given here; in the data, active = GI50 up to about 1.1 µM and inactive = higher.
The reply should name one outcome from Yes = active, No = inactive

Solved cases (2 shown):
INSERT INTO measurements (molecule, class) VALUES
  ('CN(CC#N)C(=O)Cc1ccc([N+](=O)[O-])cc1', 'No'),
  ('NC(Cc1n[nH]c2ccccc12)C(=O)O (stereo not given)', 'No');

Status in this test for `Cc1ncc([N+](=O)[O-])n1CCNC(=O)Cn1c([N+](=O)[O-])cnc1C` ?
No

What is the recorded call for this molecule in the test? CO[C@H](C(=O)[C@@H](O)[C@@H](C)O)[C@@H]1Cc2cc3cc(OC4CC(OC5CC(O)C(O)C(C)O5)C(O)C(C)O4)c(C)c(O)c3c(O)c2C(=O)[C@H]1OC1CC(OC2CC(OC3CC(C)(O)C(O)C(C)O3)C(O)C(C)O2)C(O)C(C)O1 (stereo not given in full)
Yes

Status in this test for `COc1ccc(-c2nc3c(nc2-c2ccc(OC)cc2)N(C)S(=O)(=O)N=C3N)cc1` ?
No

Please share the test call associated with `O=C(O)Cc1ccc(N2N=C(c3ccccc3)CC2=O)cc1` .
No

What classification did O=NN(CC1(O)OCC(O)C(O)C1O)C(Cc1c[nH]c2ccccc12)C(=O)O (stereo not given) end up with in this test?
No

Identify the outcome logged in this assay for the molecule shown: `Cc1ccc(NC(=O)c2cc(S(=O)(=O)Nc3n[nH]c(=O)n3-c3ccccc3)c(S)cc2Cl)cc1`
No

# lookup: test call for `O=C1O/C(=C\c2ccc(O)cc2)C(c2ccc(O)c(Cl)c2)=C1Cl`
No

Can you look up the reported call for `O=C(COC(=O)c1cccc2c(=O)c3ccccc3[nH]c12)Nc1ccc(Cl)cc1` for me?
No

How was NC(Cc1ccccc1)C(=O)NC(Cc1ccccc1)NC(=O)C(Cc1c[nH]c2ccccc12)C(=O)O (stereo not given) classified in this test?
No

Assay outcome for `COc1ccccc1/C=C1\S/C(=N/Nc2nc(C)c(C(C)=O)s2)NC1=O` : what was it?
No

So what was the verdict on O=C1OC(C2Cc3cc4c(cc3C2=O)CCC4)c2ccccc21 (stereo not given) in this test?
No

Record request — test call for `O=C1N=C(c2ccccc2)O/C1=C\c1ccccc1`
No

What did this assay record as the result for `N#CCC(=O)N1CCCCCCC1` ?
No

Query: recorded result category for `N#Cc1c(Cl)cccc1Oc1ccc(S(=O)(=O)/N=C(\NN)Nc2ccc(Cl)cc2)cc1` in this test
No

Please let me know the test result on file for Cc1ccc(S(=O)(=O)NC2(C=O)CCC(C(C)(C)C)CC2)cc1 (stereo not given) .
No

Which outcome did this test record for the molecule `c1cc2c(cc1C1=NCCN1)c1cc(C3=NCCN3)ccc1n2CC1CCCCC1` ?
No

// outcome(item) with item = `O=c1[nH]nc(Cc2ccc(Cl)cc2)n1/N=C/c1ccco1`
No

Would you mind telling me which call this test gave CSCC[C@@H](NC(=O)[C@H](CC(C)C)NC(=O)C(Cc1cnc[nH]1)NC(=O)CNC(=O)[C@@H](NC(=O)[C@H](C)NC(=O)[C@H](Cc1cn(C=O)c2ccccc12)NC(=O)[C@H](CCC(N)=O)NC(=O)[C@@H](N)CC(N)=O)C(C)C)C(N)=O (stereo not given in full) ?
No
